target-or-test-system: UniProtKB Q8NER1
assay: Ca2+ influx assay (FLIPR, Fluo-4 AM) with capsaicin challenge in 1321N1 cells expressing recombinant TRPV1
setup-conditions: inhibition of 0.05 μM capsaicin response, hTRPV1 in 1321N1 human astrocytoma cells
quantity: IC50
Put your answer as a value accompanied by its unit after it.

Give reported IC50 value for CCc1nc(Nc2cccc3c2C[C@H](O)CC3)oc1-c1ccc(C(F)(F)F)cc1 [Compound 43] 74 nM

====

Items are presented alongside their recorded IC50.
target-or-test-system: human TRPV1 receptor (Homo sapiens)
Construct: expressed in transfected cells
Sequence (Q8NER1 whole entry): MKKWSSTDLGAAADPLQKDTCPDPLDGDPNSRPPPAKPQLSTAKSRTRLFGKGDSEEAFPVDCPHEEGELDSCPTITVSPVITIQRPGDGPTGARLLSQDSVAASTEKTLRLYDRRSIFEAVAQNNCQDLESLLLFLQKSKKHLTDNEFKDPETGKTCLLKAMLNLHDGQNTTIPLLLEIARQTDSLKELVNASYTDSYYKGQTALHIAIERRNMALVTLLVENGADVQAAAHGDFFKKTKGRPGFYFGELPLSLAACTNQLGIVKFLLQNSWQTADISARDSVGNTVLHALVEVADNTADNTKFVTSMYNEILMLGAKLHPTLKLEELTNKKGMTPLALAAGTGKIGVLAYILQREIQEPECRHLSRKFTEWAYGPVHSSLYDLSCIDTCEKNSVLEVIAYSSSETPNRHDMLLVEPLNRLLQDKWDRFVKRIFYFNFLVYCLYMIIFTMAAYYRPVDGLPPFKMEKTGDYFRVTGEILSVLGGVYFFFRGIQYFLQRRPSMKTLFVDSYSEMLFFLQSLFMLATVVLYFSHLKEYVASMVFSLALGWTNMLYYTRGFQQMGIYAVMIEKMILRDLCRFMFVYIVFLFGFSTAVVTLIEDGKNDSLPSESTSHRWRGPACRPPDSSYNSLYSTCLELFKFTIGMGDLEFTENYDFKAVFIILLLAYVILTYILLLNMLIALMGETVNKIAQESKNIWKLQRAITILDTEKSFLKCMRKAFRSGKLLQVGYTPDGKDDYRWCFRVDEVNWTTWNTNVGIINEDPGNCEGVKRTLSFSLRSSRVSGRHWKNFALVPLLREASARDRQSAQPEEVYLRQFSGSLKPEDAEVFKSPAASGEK
assay: Ca2+ influx assay (FLIPR, Fluo-4 AM) with capsaicin challenge in 1321N1 cells expressing recombinant TRPV1
Assay type: cell-based
setup-conditions: inhibition of 0.05 μM capsaicin response, hTRPV1 in 1321N1 human astrocytoma cells
Protocol: Dulbecco's modified Eagle medium (D-MEM) (with 4.5 mg/mL glucose) and fetal bovine serum were obtained from Hyclone Laboratories, Inc. (Logan, Utah). […] The functional activity of compounds at the TRPV1 receptor was determined with a Ca^2+ influx assay and measurement of intracellular Ca^2+ levels ([Ca^2+]i). […] Washing of the cells was performed to remove extracellular Fluo-4 AM (2×1 mL D-PBS per well), and afterward, the cells were placed in the reading chamber of the FLIPR instrument. […]
Answer format: numeric, nM implied, no suffix.

| compound | unit-tag | IC50 |
| --- | --- | --- |
| OC1CCc2cccc(Nc3ncc(-c4ccc(C(F)(F)F)cc4)o3)c2C1 (stereo not drawn) [Compound A, reference compound] | nM | 22 |
| Cc1nc(Nc2cccc3c2CC(O)CC3)oc1-c1ccc(Cl)cc1 (stereo not drawn) | nM | 108 |

// below: IC50 requested for another compound
State, in one line, measured IC50 of C=C(C)[C@H]1CC=C(c2oc(Nc3cccc4c3CC(O)CC4)nc2C)CC1 (stereo partly drawn) 395
